Test: Equilibrium solubility of Form I and Form II + V in EtOH/EtOAc, with XRPD of the end solids
Format: physicochemical
Settings: EtOH/EtOAc solvent mixture, 20 °C, organic solvent or mixture, thermodynamic from solid, 33 V % EtOH in EtOH/EtOAc, 20° C., overnight; read-out: Solubility
Quantity: solubility
Please make sure the unit comes right after the number.

Exercise: Which solubility is listed for C[C@H](Nc1cc(Cl)nc2c1cnn2[C@@H]1O[C@H](COP(=O)(O)CP(=O)(O)O)[C@@H](O)[C@H]1O)c1ccccc1F [Form I] ?
Key: 8930 µg/mL

---

Assay: Equilibrium solubility of Form I and Form II + V in EtOH/EtOAc, with XRPD of the end solids
Assay type: physicochemical
Details: EtOH/EtOAc solvent mixture, 20 °C, organic solvent or mixture, thermodynamic from solid, 67 V % EtOH in EtOH/EtOAc, 20° C., overnight; read-out: Solubility
Quantity: solubility (mg/mL)
Give the quantity in mg/mL, number only.

Exercise: What value of solubility has been recorded for this entry: C[C@H](Nc1cc(Cl)nc2c1cnn2[C@@H]1O[C@H](COP(=O)(O)CP(=O)(O)O)[C@@H](O)[C@H]1O)c1ccccc1F [Form I]
Key: 23.7

---

Experiment: Equilibrium solubility of Form I and Form II + V in EtOH/EtOAc, with XRPD of the end solids
Format: physicochemical
Details: EtOH/EtOAc solvent mixture, 20 °C, organic solvent or mixture, thermodynamic from solid, 80 V % EtOH in EtOH/EtOAc, 20° C., overnight; read-out: Solubility
Quantity: solubility (mg/mL)
// note: answer is a bare numeric in mg/mL

Exercise: What value of solubility has been recorded for this entry: C[C@H](Nc1cc(Cl)nc2c1cnn2[C@@H]1O[C@H](COP(=O)(O)CP(=O)(O)O)[C@@H](O)[C@H]1O)c1ccccc1F [Form I]
Key: 32.8

---

Assay: Equilibrium solubility of Form I and Form II + V in EtOH/EtOAc, with XRPD of the end solids
Type: physicochemical
Conditions: EtOH/EtOAc solvent mixture, 20 °C, organic solvent or mixture, thermodynamic from solid, 100 V % EtOH in EtOH/EtOAc, 20° C., overnight; read-out: Solubility
Quantity: solubility

Exercise: Please look up its solubility: C[C@H](Nc1cc(Cl)nc2c1cnn2[C@@H]1O[C@H](COP(=O)(O)CP(=O)(O)O)[C@@H](O)[C@H]1O)c1ccccc1F [Form I]
Key: ~46 mg/mL

---

Assay: Equilibrium solubility of Form I and Form II + V in EtOH/EtOAc, with XRPD of the end solids
Type: physicochemical
Conditions: EtOH/EtOAc solvent mixture, 20 °C, organic solvent or mixture, thermodynamic from solid, 20 V % EtOH in EtOH/EtOAc, 20° C., overnight; read-out: Solubility
Quantity: solubility (µg/mL)
Number in µg/mL, nothing else.

Exercise: Which solubility is listed for C[C@H](Nc1cc(Cl)nc2c1cnn2[C@@H]1O[C@H](COP(=O)(O)CP(=O)(O)O)[C@@H](O)[C@H]1O)c1ccccc1F [Form I] ?
Key: 1010
